System: T-cell
Experiment: IL-2 secretion from T-cells co-stimulated with anti-CD3 and anti-CD28 antibody (Biological Example 2)
Type: cell-based, human
Conditions: Homo sapiens, T-cell, 0.3 μM Cbl-b inhibitor; fold change over baseline (anti-CD3/anti-CD28 stimulated T-cells without inhibitor); read-out: IL-2 secretion Anti-CD3/Anti-CD28 stimulation
RECORDED ENDPOINT: fold induction at 0.3 µM

The examples below pair each entry with its known result.
# COMPOUND, MEASURED ON, fold induction at 0.3 µM
rows = [
    ("Cn1cnnc1CC1(c2cccc(N3Cc4c(cc(CN5CCC(C(F)F)CC5)cc4C(F)(F)F)C3=O)c2)COC1", "T-cell", "5 to 7.5"),
    ("Cn1cnnc1CC1(c2cccc(N3Cc4c(cc(C5CN6CCC5CC6)cc4C(F)(F)F)C3=O)c2)COC1 (centres unmarked)", "T-cell", "2.51 to 5"),
    ("CN1C2CCC1CN(c1cc3c(c(C(F)(F)F)c1)CN(c1cccc([C@@](C)(F)C(F)(F)c4nncn4C)c1)C3=O)C2", "T-cell", "1.01 to 2.5"),
    ("CN1CC2CC(C1)N2c1cc(C(=O)Nc2cccc(C3(Cc4nncn4C)COC3)c2)nc(C2CC2)n1", "T-cell", "> 7.5"),
    ("Cn1cnnc1[C@@H](F)C1(c2cccc(N3Cc4c(cc(CN5C6CCCC5CC6)cc4C(F)(F)F)C3=O)c2)COC1 [Example 675a]", "T-cell", "2.51 to 5"),
]

Can you look up fold induction at 0.3 µM on T-cell for "Cn1cnnc1CC1(c2cccc(N3Cc4c(cc(N5CC(C(F)(F)F)C5)cc4C(F)(F)F)C3=O)c2)COC1" ? 2.51 to 5

Can you look up fold induction at 0.3 µM on T-cell for Cn1cnnc1CC1(c2cccc(N3Cc4c(cc(C(O)c5ccccc5)cc4C(F)(F)F)C3=O)c2)COC1 (centres unmarked) ? 5 to 7.5

Can you look up fold induction at 0.3 µM on T-cell for Cn1cnnc1CC1(c2cccc(N3Cc4c(cc(CN5CC[C@H](c6ccccc6)C5)cc4C(F)(F)F)C3=O)c2)COC1 [Example 662a] ? 5 to 7.5

Can you look up fold induction at 0.3 µM on T-cell for C[C@@H]1CN(Cc2cc3c(c(C(F)(F)F)c2)CN(c2cccc(C4(Cc5nncn5C)COC4)c2)C3=O)CCO1 [Example 663b] ? > 7.5

Can you look up fold induction at 0.3 µM on T-cell for C[C@@H](c1cc2c(c(C(F)(F)F)c1)CN(c1cccc(C3(Cc4nncn4C)COC3)c1)C2=O)N1CC(F)C1 [Example 668b] ? 5 to 7.5

Can you look up fold induction at 0.3 µM on T-cell for "C[C@H](Cc1nncn1C)c1cc(C2CC2)nc(N2Cc3c(cccc3C(F)(F)F)C2=O)c1" ? 1.01 to 2.5

Can you look up fold induction at 0.3 µM on T-cell for "CN1CC2CC(C1)N2c1cc2c(c(C(F)(F)F)c1)CN(c1cccc([C@@](C)(F)C(F)(F)c3nncn3C)c1)C2=O" ? 5 to 7.5

Can you look up fold induction at 0.3 µM on T-cell for Cn1cnnc1[C@H](F)C1(c2cccc(N3Cc4c(cc(CN5CCC(F)CC5)cc4C(F)(F)F)C3=O)c2)COC1 [Example 670b] ? > 7.5

Can you look up fold induction at 0.3 µM on T-cell for "Cn1cnnc1CC1(c2cccc(N3Cc4c(cc(CN5CCC6(CC6)C5)cc4C(F)(F)F)C3=O)c2)CCC1" ? > 7.5

Hey, just so you know, these numbers are from patent US20220324835A1.
